- measuredOn: Aspartate--tRNA(Asp/Asn) ligase (Mycobacterium tuberculosis (strain ATCC 25618 / H37Rv))
- assayRemarks: Assay for Asp RNA synthetase-1 from Mycobacterium tuberculosis
- Format: functional
- Parameters: scale not given: in the data most compounds retested in dose-response had high values
- conditionsUsed: 30 µM
This section presents molecules with their documented Percent Effect values.

molecule | unitString | Percent Effect
O=C(NCC1(CO)CC1)c1cccc2ccccc12 | % | -3.45
Cc1nnc(N2CC[C@H]3C[C@H](C(=O)N4CCOCC4)O[C@H]3C2)s1 | % | 3.25
COCC(C)(O)CNC(=O)COc1ccccc1OC (stereo not drawn) | % | -4.69
Cc1cn2c(n1)CCC(NC(=O)c1c[nH]c(C)n1)C2 (stereo not drawn) | % | -7.1
Cc1ccc(C(=O)N2C[C@H]3CCC[C@@]3(COCc3cccnc3)C2)s1 | % | 6.3
COc1ncccc1CNC(=O)NCCNC(=O)c1ccco1 | % | -10.1
CSCC(=O)N1C[C@H]2CC[C@@H]1CN(Cc1ccccc1)C2 | % | 4.28
Cc1cccc(CN2C(=O)CC[C@@H]3[C@H]2CCN3CC2CCOCC2)n1 | % | -1.51
CCn1c(C)cc(C(=O)N2CCCC(c3nc(C)no3)C2)c1C (stereo not drawn) | % | 3.31
CN(Cc1cnn(C)c1)C(=O)NC1CCN(c2ncccn2)CC1 | % | -1.27
c1ccc2sc(N3CCOC(Cn4cccn4)C3)nc2c1 (stereo not drawn) | % | 6.21
Cc1ccc(-c2cc(N)c(=O)n(CC(=O)NC3CCCCC3)n2)s1 | % | 1.95
CCCNC(=O)c1ccc(NC(=O)c2cccc(OCC)c2)cc1 | % | 2.98
NC(=O)c1cnn2c1NCC(CNCCCOc1ccccc1F)C2 (stereo not drawn) | % | -0.278
Cn1ccnc1CN1CCCC(Cc2ccccn2)C1 (stereo not drawn) | % | -2.49
CCc1n[nH]c(C2CN(CC(=O)NCCc3ccsc3)CCO2)n1 (stereo not drawn) | % | -5.2
CN1CC(C(=O)NC(C)(C)C)CC1=O (stereo not drawn) | % | 0.616
O=C(CC1CCCO1)NCc1ccccc1Cn1cncn1 (stereo not drawn) | % | -3.17
CCOc1cc(/C=C/c2ncc(C(=O)O)s2)cc(Cl)c1OC | % | -1.24
O=C(c1cccc2c1OCO2)N1CCCC1Cn1cccn1 (stereo not drawn) | % | 3.69
CC(=O)Nc1cc(C(=O)N2CCOCC2c2ccc(C)o2)ccc1F (stereo not drawn) | % | -5.67
Cc1nccn1CC1CCCN1S(=O)(=O)Cc1ccon1 (stereo not drawn) | % | -2.34
COc1ccc(-c2nnc(SC(C)C(=O)NC3CC3)[nH]2)c(OC)c1 (stereo not drawn) | % | 2.19
COc1ccc(CN2C[C@@H]3OCCN(c4ncccn4)[C@@H]3C2)cc1 | % | 3.34
O=C(Nc1cccnc1)[C@H]1C[C@@H]2CCN(c3nncs3)C[C@H]2O1 | % | -3.84
Cc1cc(C)n(CC2CCCN2CCc2ccncc2)n1 (stereo not drawn) | % | -1.26
O=C(C1CCOC1)N1CCc2ncc(CNc3ccccn3)n2CC1 (stereo not drawn) | % | -0.229
Cc1ccoc1C(=O)N1CCOCC2(CCN(c3ncccn3)C2)C1 (stereo not drawn) | % | 5.74
N#CC1(C(=O)N2CCN(Cc3ccon3)CC2)CCC1 | % | -1.89
CCOc1ccc(C2CC(=O)Nc3c2c(=O)nc2sccn32)cc1 (stereo not drawn) | % | 0.813
Cn1cc(CC(=O)N2CCC(Nc3cccnn3)CC2)c2ccccc21 | % | 2.29
COc1cccc(CN2CCCC(Nc3cccc(F)c3)C2)c1O (stereo not drawn) | % | -1.31
CN(C)C(=O)[C@H]1C[C@@H]2CCN(C3CCOCC3)C[C@H]2O1 | % | -3.87
Cn1nnc2c1CCN(Cc1ccccc1)C2COCC1CC1 (stereo not drawn) | % | 2.13
CC1c2ncc(CNC(=O)C3CC3)n2CCN1Cc1cnn(C)c1 (stereo not drawn) | % | 7.02
CCCS(=O)(=O)N1C[C@H]2OC(=O)N(CCc3cccc(Cl)c3)[C@H]2C1 | % | -4.26
COc1ccccc1OCCC(=O)N1CCCC1Cn1cc(C)cn1 (stereo not drawn) | % | -0.922
O=C(c1ccc(C2CCCO2)s1)N1CCS(=O)(=O)CC1 (stereo not drawn) | % | 3.74
COc1cc(/C=C/c2ncc(C(=O)O)s2)cc(Cl)c1O | % | -0.0437
CN(C)[C@@H]1CCN(C(=O)NC2CCCC2)[C@H]1Cc1cnn(C)c1 | % | -2.75
CC1CCN(S(=O)(=O)c2cccn(CC(=O)N3CCOCC3)c2=O)CC1 | % | -4.3
O=C(Cn1cnnn1)N1CCCCC1Cn1cccn1 (stereo not drawn) | % | -0.885
Cc1cc2nc(SCC(=O)N3CCOCC3)n(CC(C)C)c(=O)c2[nH]1 | % | 11.7
c1ccc(CN2CC[C@@H]3O[C@H](COCc4ccncc4)CC[C@@H]32)nc1 | % | -0.574
Cc1nc(C(=O)N2CCCC2c2c(C)nn(C)c2C)ccc1C#N (stereo not drawn) | % | -1.21
OC(CN1CCC(c2ccn[nH]2)CC1)c1cccc(F)c1 (stereo not drawn) | % | -4.71
CN(C)C(=O)C1CN(Cc2ccccc2)CCN(S(C)(=O)=O)C1 (stereo not drawn) | % | -2.4
Cc1cccc(-c2nc(C)nn2CC(=O)NC2CCCC2)c1 | % | -5.28

###

This section presents compounds with their documented Percent Effect values.
- measuredOn: Aspartate--tRNA(Asp/Asn) ligase (Mycobacterium tuberculosis (strain ATCC 25618 / H37Rv))
- Sequence (whole entry): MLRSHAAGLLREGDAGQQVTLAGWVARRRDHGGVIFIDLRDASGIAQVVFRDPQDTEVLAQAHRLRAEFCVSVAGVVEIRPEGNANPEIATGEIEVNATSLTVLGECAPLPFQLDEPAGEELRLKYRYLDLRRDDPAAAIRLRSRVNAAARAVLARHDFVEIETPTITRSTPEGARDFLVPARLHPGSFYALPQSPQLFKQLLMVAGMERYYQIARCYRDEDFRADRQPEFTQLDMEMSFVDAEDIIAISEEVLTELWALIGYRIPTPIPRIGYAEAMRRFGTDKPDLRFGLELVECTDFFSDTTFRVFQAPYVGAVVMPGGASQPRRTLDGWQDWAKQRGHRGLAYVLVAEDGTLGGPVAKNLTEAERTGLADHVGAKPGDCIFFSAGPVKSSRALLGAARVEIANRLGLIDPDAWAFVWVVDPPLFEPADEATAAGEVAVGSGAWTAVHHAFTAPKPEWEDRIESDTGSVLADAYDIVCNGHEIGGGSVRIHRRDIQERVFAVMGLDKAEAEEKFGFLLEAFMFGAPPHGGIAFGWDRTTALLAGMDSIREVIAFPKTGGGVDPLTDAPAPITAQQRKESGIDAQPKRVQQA
- assayRemarks: Assay for Asp RNA synthetase-1 from Mycobacterium tuberculosis
- Assay type: functional
- Set-up: scale not given: in the data most compounds retested in dose-response had high values
- conditionsUsed: 30 µM

compound | unitString | Percent Effect
CCOC1CCN(C(=O)c2cnn(-c3ccccc3Cl)c2)CC1 | % | 2.29
Cc1cnn(C2CCCN(C(=O)c3cnc4ccccc4n3)C2)c1 (centres undefined) | % | 9.11
CCS(=O)(=O)c1ccccc1N1CCC(NC(=O)NC2CCCC2)CC1 | % | -3
Cc1cn2c(n1)CCC(NC(=O)CCn1ccnn1)C2 (centres undefined) | % | -3.77
CN1C(=O)C(C)(C)COc2cc(NS(=O)(=O)c3ccccc3)ccc21 | % | -5.61
Cc1cnn(CC2CN(Cc3nc(-c4ccoc4)no3)CCO2)c1 (centres undefined) | % | -3.63
CC(C)(C)NC(=O)CN1CCN(C(=O)Nc2ccc(F)cc2F)CC1 | % | -2.94
O=C(CN1CCCC1Cn1cncn1)NCCOc1cccc(F)c1 (centres undefined) | % | -0.983
Cc1ncc2c(n1)CN(CCCc1nc3ccccc3o1)CC2 | % | 6.8
Cc1cc(CN2CCc3nn(C)c(=O)cc3C2)on1 | % | 46.2
Cc1ccn(-c2ccc(C(=O)N3CCCC(C(N)=O)C3)cc2)n1 (centres undefined) | % | -3.4
O=C(Cc1n[nH]c2ccccc12)N1CCC(Nc2cccnn2)CC1 | % | 2.78
Cc1ncccc1NC(=O)[C@H]1C[C@@H]2CCN(Cc3nccs3)C[C@@H]2O1 | % | -3.35
CSCC[C@H](NC(=O)Cn1ccc2c(Cl)cccc21)C(=O)O | % | -3.22
CCn1c(Cn2cncn2)nnc1C1CCN(Cc2ccncc2)CC1 | % | 4.98
FC(F)(F)C1CCc2nnc(CNCc3ccsc3)n2C1 (centres undefined) | % | -0.0705
CC(=O)Nc1nc(C(=O)NC(C)c2ccc(F)cc2)cs1 (centres undefined) | % | -3.46
Cc1cc(C)n(CCC(=O)N2CCCC(n3cncn3)C2)n1 (centres undefined) | % | -6.22
CC(C)N(CC(N)=O)Cc1csc(COc2ccc(F)cc2)n1 | % | -2.28
CC(c1ccc(F)c(F)c1)N1CCN(Cc2nccn2C)CC1 (centres undefined) | % | -2.85
O=C(NCc1cccnc1)C1=NOC2(CCN(S(=O)(=O)C3CC3)C2)C1 (centres undefined) | % | -3.41
COc1ccc(CN2CCc3ncnc(OC(C)C)c3CC2)cc1 | % | 8.01
Cn1c(CNc2c(F)cccc2-n2cccn2)cc(=O)n(C)c1=O | % | -0.864
CN(Cc1ccc2c(c1)OCCO2)C(=O)Cn1ccccc1=O | % | -7.28
